These data points were gathered from ChEMBL document CHEMBL4043266.

- system under test: Pancreatic alpha-amylase (Sus scrofa)
- Sequence (P00690 whole entry): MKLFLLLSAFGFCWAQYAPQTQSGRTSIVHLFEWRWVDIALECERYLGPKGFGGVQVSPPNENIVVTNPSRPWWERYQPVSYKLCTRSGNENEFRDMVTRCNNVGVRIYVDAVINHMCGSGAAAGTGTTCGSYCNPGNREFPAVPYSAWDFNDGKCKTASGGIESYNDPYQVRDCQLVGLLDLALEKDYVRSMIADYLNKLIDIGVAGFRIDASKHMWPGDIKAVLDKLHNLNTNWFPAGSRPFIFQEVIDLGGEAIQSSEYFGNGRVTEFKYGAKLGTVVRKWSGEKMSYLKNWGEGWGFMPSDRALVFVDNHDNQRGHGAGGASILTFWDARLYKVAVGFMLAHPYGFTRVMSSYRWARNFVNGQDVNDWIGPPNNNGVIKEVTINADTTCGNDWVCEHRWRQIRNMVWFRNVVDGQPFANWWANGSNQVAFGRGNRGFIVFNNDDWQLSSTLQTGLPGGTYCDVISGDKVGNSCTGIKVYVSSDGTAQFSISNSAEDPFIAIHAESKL
pIC50: −log10 of the molar value.
readout label: pIC50

Recorded pIC50, per entry:
smiles	system under test	pIC50
C[C@H]1[C@H](C)CC[C@]2(C(=O)O)CC[C@]3(C)C(=CC[C@@H]4[C@@]5(C)C[C@@H](O)[C@H](O)C(C)(C)[C@@H]5CC[C@]43C)[C@H]12	Pancreatic alpha-amylase (Sus scrofa)	4.51
C=C(C)[C@@H]1CC[C@]2(CO)CC[C@]3(C)[C@H](CC[C@@H]4[C@@]5(C)CC[C@H](O)C(C)(C)[C@@H]5CC[C@]43C)[C@@H]12	Pancreatic alpha-amylase (Sus scrofa)	< 3.70
C=C(C)[C@@H]1CC[C@]2(C(=O)O)CC[C@]3(C)[C@H](CC[C@@H]4[C@@]5(C)CC[C@H](O)C(C)(C)[C@@H]5CC[C@]43C)[C@@H]12	Pancreatic alpha-amylase (Sus scrofa)	< 3.70

# pIC50 of C[C@H]1[C@H](C)CC[C@]2(C(=O)O)CC[C@]3(C)C(=CC[C@@H]4[C@@]5(C)C[C@@H](O)[C@H](O)[C@@](C)(CO)[C@@H]5CC[C@]43C)[C@H]12 = < 3.70
